Reference for the values: PubChem BioAssay (NCATS)

# assayedTarget: Cytochrome P450 3A4 (Homo sapiens) (UniProt P08684)
# Sequence (P08684 whole entry, looked up): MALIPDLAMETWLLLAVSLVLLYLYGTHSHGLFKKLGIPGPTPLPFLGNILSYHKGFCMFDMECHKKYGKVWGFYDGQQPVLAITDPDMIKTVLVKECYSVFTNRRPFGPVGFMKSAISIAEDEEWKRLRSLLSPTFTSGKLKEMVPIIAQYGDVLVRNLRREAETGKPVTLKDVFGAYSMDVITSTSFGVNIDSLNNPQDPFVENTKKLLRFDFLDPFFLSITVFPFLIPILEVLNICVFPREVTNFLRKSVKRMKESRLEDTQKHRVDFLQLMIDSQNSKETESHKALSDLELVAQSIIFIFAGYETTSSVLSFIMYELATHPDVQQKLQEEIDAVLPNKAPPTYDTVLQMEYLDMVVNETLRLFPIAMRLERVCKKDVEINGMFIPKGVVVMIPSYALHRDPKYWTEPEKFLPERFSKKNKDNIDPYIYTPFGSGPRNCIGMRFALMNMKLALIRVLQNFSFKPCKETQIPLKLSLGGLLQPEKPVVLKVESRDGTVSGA
# methodDescription: qHTS Assay for Inhibitors and Substrates of Cytochrome P450 3A4 (AID 884); note: nearly all actives have a fitted effect of over 50% in size; note: potency is the fitted concentration of half-maximal effect
# appliedConditions: recombinant CYP3A4, Luciferin-PPXE luminescence; series mostly up to 57.1 µM
Inconclusive results are not listed. The source made the active and inactive calls. Calls come from the whole dose curve; as a rule, active = well fitted inhibition curve with a large enough effect; inconclusive = small, poorly fitted or top-dose-only effect; inactive = no such curve, though single readings can be large or run the other way.
quantity: Potency

Study these solved cases before continuing.
Cc1cccc(CNc2ccnc(-c3cccnc3)n2)c1 :: 0.501 µM (active)
CC(C)NC(=O)N1CCCC2(CCN(S(=O)(=O)c3ccccc3)CC2)C1 :: 7.94 µM (active)
O=C(Oc1ccccc1)N1CCC2(CC1)CCN(c1ncccn1)CC2 :: inactive
COc1cc(=O)n(C)c2c(OCC(O)C(C)(C)O)cccc12 (stereo unspecified) :: inactive
N#Cc1cccc(-c2nc3cnc(Oc4cccc(Cl)c4)nc3n(C3CC3)c2=O)c1 :: inactive

Item Cc1nc(NCCO)c2nc(-c3ccccc3)n(CC3CCN(C)CC3)c2n1 : provide Potency
inactive

Supply Potency value. Item: CCN(CC)CCn1c(-c2ccccc2)nc2c(NCc3ccccc3)nc(C)nc21
12.6 µM (active)

Using known records, supply Potency for c1cncc(CNc2ncncc2-c2cccnc2)c1
2 µM (active)

Identify measured Potency associated with N#Cc1cccc(NC(=O)N2CCC3(CC2)CCN(C(=O)c2ccco2)CC3)c1
inactive

Could you please provide reported Potency for Cn1cccc1C(=O)N1CCC2(CC1)CCN(c1ccc(-c3ccccc3)cc1)CC2 ? Thanks!
inactive

Please supply the value of reported Potency for the item Clc1ccccc1-c1ccc2ncnc(NCc3cccnc3)c2c1
2 µM (active)

###

# methodDescription: Panc-1005 Cancer Cell Toxicity qHTS against the NCATS CANVASS Library (AID 1347349); note: % is set by controls: 0 for no effect and ±100 for the full control effect; nearly all actives have a fitted effect of over 60% in size
# appliedConditions: Panc-1005 viability, CellTiter-Glo luminescence, 72 h; series mostly up to 38.3 µM
Results filed as inconclusive are left out. Calls of active or inactive are those of the source. Calls follow the shape of the dose curve; as a rule, active = well fitted cell-killing curve with a large enough effect; inconclusive = small, poorly fitted or top-dose-only effect; inactive = flat fitted curve, though single readings scatter.
Parameter call: string, one of active, inactive

# outcome recorded in this test, key = O=C1CC(c2ccc(O)cc2)Oc2ccccc21 (stereo not given)
inactive

###

# assayedTarget: Cytochrome P450 3A4 (Homo sapiens)
# methodDescription: qHTS Assay for Activators of Cytochrome P450 3A4 (AID 885); note: nearly all actives have a fitted effect of over 65% in size
# appliedConditions: recombinant CYP3A4, Luciferin-PPXE luminescence, 60 min; series mostly up to 57.1 µM
The source made the active and inactive calls. Calls come from the whole dose curve; as a rule, active = well fitted activation curve with a large enough effect; inconclusive = small, poorly fitted or top-dose-only effect; inactive = no such curve, though single readings can be large or run the other way.
Please answer using one outcome listed in 1 for active, 0 for inactive

Some solved entries appear below for comparison.
COc1ccc(C(=O)N2CCC[C@@]3(CCN(C(=O)Nc4ccccc4)C3)C2)cc1 :: 0
COc1cccc(-c2nccc(-n3ccnc3)n2)c1 :: 0
CN1CCN(c2nc(-c3ccc(N(C)C)cc3)nc3ccccc23)CC1 :: 0
O=C(Nc1cccc(F)c1)N1CCCC2(CCNCC2)C1 :: 0

Per the assay record, what outcome was assigned to O=c1c(-c2ccccc2)nc2cnc(N3CCNCC3)nc2n1-c1ccccc1 ?
0

Record lookup: outcome of this test for CS(=O)(=O)N1CCC2(CCN(Cc3ccncc3)CC2)CC1 ?
0

What outcome does the record of this test show for CCCn1c(-c2ccc(F)cc2)nc2c(N3CCCN(Cc4ccccc4)CC3)nc(C)nc21 ?
0

Query: recorded result category for COc1cccc(Cn2c(=O)cnc3cncnc32)c1 in this test
0

Called result for CN1CCN(c2ncc3nc(CCc4ccccc4)c(=O)n(C4CC4)c3n2)CC1
0

Please indicate how the test categorized Cn1cc(-c2nc3cnc(Oc4cccc(Cl)c4)nc3n(CCC#N)c2=O)c2ccccc21 .
0

Test call for this compound, please: CS(=O)(=O)N1CCC[C@@]2(CCN(c3ccccc3)C2)C1
0

What did the test return for Cc1noc(C)c1-c1cc(NCc2cccs2)ncn1 ?
0

Lab log entry: COc1ccc2[nH]cc(CCNc3ncnc4ccc(-c5cccnc5)cc34)c2c1 — outcome as called in the assay?
0

Check the results log: what was the call for c1cncc(CNc2ncncc2-c2ccc3c(c2)OCO3)c1 ?
0

What is the recorded call for this compound in the test? CCCn1c(C)nc2c(NC(C)CCCN(CC)CC)nc(C)nc21 (stereo not given)
0

Please let me know the test result on file for CC(=O)N1CCC[C@@]2(CCN(c3ccncc3)C2)C1 .
0

Hello, I am checking results. What call was entered for Cc1nc(NC2CCCCC2)c2nc(-c3ccccc3)n(CCCN(C)C)c2n1 ?
0

Outcome? Cc1noc(C)c1-c1ccc2ncnc(Nc3ccc(F)cc3)c2c1
0

Status in this test for COc1ccccc1-c1nccc(NCc2cnc(C)cn2)n1 ?
0

# lookup: test call for COc1cccc(Cn2c(=O)c(-c3cccc(C#N)c3)nc3cnc(N4CCN(C)CC4)nc32)c1
0

Could you please tell me the result logged for Cn1cccc1C(=O)N1CCC2(CCCN(c3ccccc3)C2)CC1 in this assay?
0

###

Below: a set of entries, each annotated with reported activation.
# methodDescription: qHTS Assay for Identification of Small Molecule Agonists for Hypoxia Response Element Signaling Pathway (AID 914); note: % of control where 0% means no effect
# appliedConditions: ME-180 HRE-bla reporter, beta-lactamase ratio, CoCl2, 17 h; active compounds read high
# From the text: NIH Molecular Libraries Screening Centers Network [MLSCN] NIH Chemical Genomics Center [NCGC] Hypoxia-inducible factor-1 (HIF-1) is the major hypoxia-regulated transcription factor that controls cellular responses to low oxygen concentration. HIF-1 is composed of two subunits: hypoxia responsive HIF-1 alpha and constitutively expressed HIF-1 beta, which is also known as aryl hydrocarbon receptor nuclear translocator. […]
Inconclusive results are not listed.
Field format: number, assumed %, no unit text.

Sample records with activation:
COc1ccc(Oc2ncc3nc(-c4ccc(OC)cc4)c(=O)n(C4CC4)c3n2)cc1 :: 12.9
CCNc1ncc2nc(C)c(=O)n(-c3ccc(OC)cc3)c2n1 :: -10.1
CN1CCN(c2ncc3nc(CCc4ccccc4)c(=O)n(C4CC4)c3n2)CC1 :: -5.15
O=C(c1csnn1)N1CCC2(CC1)CCN(c1ccccc1)CC2 :: -15.4

Now consider a different compound.
Recall and state the measured activation for Cc1noc(C)c1-c1cc(N(C)C)ncn1 .
0.655

###

# methodDescription: MCF7 Cancer Cell Toxicity qHTS against the NCATS CANVASS Library (AID 1347369); note: potency is the fitted concentration of half-maximal effect
# appliedConditions: MCF7 viability, ATP luminescence (CellTiter-Glo), 72 h; series mostly up to 46 µM
Inconclusive results are not listed. Activity calls are given as the source filed them. Calls follow the shape of the dose curve; as a rule, active = well fitted cell-killing curve with a large enough effect; inconclusive = small, poorly fitted or top-dose-only effect; inactive = no such curve, though single readings can be large or run the other way. Peptide text beside a SMILES is read from it. * marks the point of attachment. Hexanoyl = CCCCCC(=O)*
quantity: Potency

O=c1cc(-c2ccc(O)cc2)oc2cc(O)c([C@@H]3OC(CO)[C@H](O)[C@@H](O)[C@H]3O)c(O)c12 (some centres undefined) :: inactive
CC[C@H]1[C@H](C)[C@H](c2cc(OC)c(OC)cc2OC)[C@@H](C)[C@H](c2cc(OC)c(OC)cc2OC)[C@@]12C=C(OC)C(=O)C=C2OC :: inactive
O=C1OC(CCO)c2cccc(O)c21 (centres undefined) :: inactive
COc1cc2c(c(O)c1O)C(=O)c1c(coc1C)C2=O :: 7.39 µM (active)
CCCCCC(=O)N[C@@H](CC(C)C)C(=O)N[C@H](C=O)CCC(=O)O (Hexanoyl-Leu-Glu-aldehyde) :: inactive

Check the records and state Potency for O=C1c2c(O)cc(O)cc2OC(c2ccc(O)cc2)C1O (centres undefined)
inactive

Dear colleague, please send me the reported Potency for COc1c(O)cc2c(c1O)C(=O)c1c(coc1C)C2=O when you can.
inactive

Determine its reported Potency: O=C1CC(c2ccc(O)cc2)Oc2cc(O)cc(O)c21 (centres undefined)
inactive

Provide Potency value for the following compound: CC[C@@H]1[C@H](C)[C@H](c2cc(OC)c(OC)cc2OC)[C@@H](C)[C@H](c2cc(OC)c(OC)cc2OC)[C@]12C=C(OC)C(=O)C=C2OC
inactive

###

# methodDescription: Stat Signaling Pathway (AID 446);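 note: ME-180 cervical cancer cells given 40 pM IL-6 alongside compound; SIE-controlled beta-lactamase reporter measured as 460/530 nm FRET emission ratio; % is set by controls: 0 for no effect and ±100 for the full control effect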
# appliedConditions: ME-180 (cervical carcinoma) SIE beta-lactamase reporter, IL-6 stimulated, 5 h; at 7.69 µM (top of the series) unless noted
Results filed as inconclusive are left out. Active and inactive are the calls of the source. Calls follow the shape of the dose curve; as a rule, active = well fitted curve in either direction with a large enough effect (not every such curve was filed as active); inconclusive = small, poorly fitted or top-dose-only effect, or another doubt; inactive = flat fitted curve, though single readings scatter.
Each entry below lists one item and its recorded activity, negative = inhibition value.

Cc1noc(C)c1C(=O)N1CCC2(CCCN(C(=O)NC(C)C)C2)CC1 :: -2.07% (inactive)
CN(C)Cc1ccccc1-c1nc(NCc2cccs2)c2ccccc2n1 :: 15.6% (inactive)
Cc1nc2cnc(OCc3ccccc3)nc2n(C)c1=O :: -5.11% (inactive)

Turning now to a further record.
Give activity, negative = inhibition for O=c1c(-c2ccc(Cl)cc2)nc2cnc(Oc3ccccc3)nc2n1C1CC1
-4.95% (inactive)

###

# methodDescription: A2780 Cisplatin Sensitive Ovarian Cancer Cell Toxicity qHTS against the NCATS CANVASS Library (AID 1347353); note: nearly all actives have a fitted effect of over 60% in size
# appliedConditions: A2780 ovarian cancer viability, ATPLite luminescence, 72 h; series mostly up to 46.1 µM
Records with an inconclusive call do not appear. Active and inactive are the calls of the source. Calls come from the whole dose curve; as a rule, active = well fitted cell-killing curve with a large enough effect; inconclusive = small, poorly fitted or top-dose-only effect; inactive = flat fitted curve, though single readings scatter.
Respond only with the outcome that fits, drawn from active, inactive

Please review the following examples before continuing.
C/C=C/c1cc2c(c(=O)o1)C(=O)[C@@H](O)[C@H](C)O2 :: active
C/C(=C\[C@H](C)C(=O)C[C@H](O)CC1CC(=O)NC(=O)C1)[C@@H]1OC(=O)CCCC/C=C/[C@@H](O)C[C@@H]1C :: active
CC(C)=CC[C@H]1C[C@@]2(CC=C(C)C)C(=O)[C@](CC=C(C)C)(C(=O)C(C(=O)c3ccccc3)=C2O)C1(C)C :: active

Below: the item to evaluate.
Name the outcome recorded for O=C1CC(c2ccc(O)cc2)Oc2cc(O)cc(O)c21 (centres undefined) in the assay.
inactive
